tested-system: Receptor-interacting serine/threonine-protein kinase 1 (Homo sapiens)
Sequence (Q13546 whole entry): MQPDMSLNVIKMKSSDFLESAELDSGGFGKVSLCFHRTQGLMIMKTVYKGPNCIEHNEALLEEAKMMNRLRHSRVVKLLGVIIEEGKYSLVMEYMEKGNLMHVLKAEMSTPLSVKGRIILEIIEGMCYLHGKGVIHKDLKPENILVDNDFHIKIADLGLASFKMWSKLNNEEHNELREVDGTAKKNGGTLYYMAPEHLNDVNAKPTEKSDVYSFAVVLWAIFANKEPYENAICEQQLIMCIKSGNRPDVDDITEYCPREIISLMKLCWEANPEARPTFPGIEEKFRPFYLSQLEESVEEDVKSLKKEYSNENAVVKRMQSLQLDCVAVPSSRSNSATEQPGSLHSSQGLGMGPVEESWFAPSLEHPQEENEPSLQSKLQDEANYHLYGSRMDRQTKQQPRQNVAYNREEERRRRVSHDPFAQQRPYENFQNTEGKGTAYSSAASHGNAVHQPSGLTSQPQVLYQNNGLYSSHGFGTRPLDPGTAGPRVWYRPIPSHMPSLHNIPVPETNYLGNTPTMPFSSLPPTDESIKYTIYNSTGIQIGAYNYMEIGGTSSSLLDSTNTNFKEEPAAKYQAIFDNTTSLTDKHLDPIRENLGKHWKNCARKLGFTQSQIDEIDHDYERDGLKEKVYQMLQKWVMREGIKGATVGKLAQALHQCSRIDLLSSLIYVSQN
quantity: pKi
One number for each entry, as −log10 of the molar value.

IN: pKi lookup needed for CN1C(=O)[C@@H](NC(=O)c2n[nH]c3c2CC(C)(C)OC3)COc2ccccc21 , thanks.
OUT: 6.33
